The measurements presented in this section are drawn from the array DNA melting data of Ke et al. (doi:10.1101/2024.01.08.574731).

assay: melting temperature; fluorescence melt of hairpins on a sequencing array, two-state fit, raised by 9.35 °C to match UV melts; conditions: sodium 0.088 M
Label key: yes means Tm under 50 °C; no means Tm of 50 °C or more.

| input-sequence | class-name |
| --- | --- |
| GCGGGCACGAAAGTGCGC (((..(((....)))))) | no |
| GAATGCGAAAGCATCTTC ((((((....)))..))) | no |
| GATTGACGAAAGTCCATC (((.(((....))).))) | yes |
| GATCGAGGTCTCGATC ((((((....)))))) | no |
| GGCGACGAAAGTCACGCC ((((((....)))..))) | no |
| GGCACCGAAAGGTGAGCC ((((((....)))..))) | no |
| GTATACGCGAAAGCGTAC (((..(((....)))))) | yes |
| ATGGAGAAATCCAT (((((....))))) | yes |
| GTTAGCCGAAAGGCGAAC (((.(((....))).))) | no |
| GTTTCTGGAAACAGAGAC ((.((((....)))).)) | yes |
| GATCCGAACGCGGATC ((((((....)))))) | no |
